target: T1, recombinant human CD47 extracellular domain (ECD), His-tagged, monomer (human, UniProt Q08722 19-141); test: ProteOn SPR; mAb captured, ECD monomer as analyte
T1 construct: C-terminal 6xHis tag; monomeric fraction from Superdex 200; also called human CD47 ECD; CD47-ECD monomer
observed.property: pKd
API: returns pKd as number; meaning -log10 of concentration in mol/L.

A selection of reference data follows.
binder	pKd
C47B240 (antibody, V domains shown, human IgG2sigma/kappa) VH: EVQLVQSGAEVKKPGESLKISCKGSGYSFTSYWIGWVRQMPGKGLEWMGIIYPGDSDTRYSPSFQGQVTISADKSISTAYLQWSSLKASDTAMYYCARVGRFASHQLDYWGQGTLVTVSS VL: EIVLTQSPATLSLSPGERATLSCRASQSVSNRQAWYQQKPGQAPRLLIHSASNRATGIPARFSGSGSGTDFTLTISSLEPEDFAVYYCQQGRSWPFTFGQGTKVEIK	8.07
C47B217 (antibody, V domains shown, human IgG2sigma/kappa) VH: EVQLVQSGAEVKKPGESLKISCKGSGYSFTDSWIGWVRQMPGKGLEWMGIIYPGDSDTRYSPSFQGQVTISADKSISTAYLQWSSLKASDTAVYYCARVGRFASHQLDYWGQGTLVTVSS VL: EIVLTQSPATLSLSPGERATLSCRASQSVNKALAWYQQKPGQAPRLLIYGASNRATGIPARFSGSGSGTDFTLTISSLEPEDFAVYYCQQGKGWPFTFGQGTKVEIK	8.12
C47B214 (antibody, V domains shown, human IgG2sigma/kappa) VH: EVQLVQSGAEVKKPGESLKISCKGSGYSFDDSWIGWVRQMPGKGLEWMGIIYPGDSDTRYSPSFQGQVTISADKSISTAYLQWSSLKASDTAVYYCARVGRFASHQLDYWGQGTLVTVSS VL: EIVLTQSPATLSLSPGERATLSCRASQSVNNRLAWYQQKPGQAPRLLIHWASTRAIGIPARFSGSGSGTDFTLTISSLEPEDFAVYYCQQGASWPFTFGQGTKVEIK	8.64
C47B228 (antibody, V domains shown, human IgG2sigma/kappa) VH: EVQLVQSGAEVKKPGESLKISCKGSGYSFDDYWIGWVRQMPGKGLEWMGIIYPGDSDTRYSPSFQGQVTISADKSISTAYLQWSSLKASDTAVYYCARVGRFASHQLDYWGQGTLVTVSS VL: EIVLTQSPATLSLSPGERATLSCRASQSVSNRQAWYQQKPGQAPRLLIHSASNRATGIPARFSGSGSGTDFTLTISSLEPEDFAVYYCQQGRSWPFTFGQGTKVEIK	8.57

Field: next binder
Reported pKd, binder C47B91 (antibody, human IgG2, V domains shown, phage-derived; also called C47M91; parent C47B91) VH: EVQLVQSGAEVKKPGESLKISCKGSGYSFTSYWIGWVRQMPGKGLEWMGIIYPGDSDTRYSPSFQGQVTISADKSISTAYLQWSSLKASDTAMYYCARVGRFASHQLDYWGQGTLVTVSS VL: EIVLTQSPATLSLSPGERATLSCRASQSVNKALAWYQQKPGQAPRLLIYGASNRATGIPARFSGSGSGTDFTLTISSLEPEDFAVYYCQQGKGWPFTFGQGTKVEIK : ____ 8.23
